Delta (micromoles fecal bile acid per day) values, listed per item
system: fecal bile acid (FBA); assay: Rat gavage assay (fecal bile acid increase); assay type: in vivo; settings: dose .08 mg/kg/day
measured property: Delta (micromoles fecal bile acid per day)

molecule	reported
CCCCC1(CCCC)CS(=O)(=O)c2ccc(N(C)C)cc2[C@@H](c2ccc(OCCCCCNCCc3cnc[nH]3)cc2)[C@H]1O [Example 1417]	39.6 micromoles fecal bile acid per day
CCCCC1(CCCC)CS(=O)(=O)c2ccc(N(C)C)cc2[C@@H](c2ccc(OCCC[N+]34CCN(CC3)CC4)cc2)[C@H]1O [Example 1406]	12.8 micromoles fecal bile acid per day
CCCCC1(CCCC)CS(=O)(=O)c2ccc(N(C)C)cc2[C@@H](c2ccc(OCCCC[N+](CC)(CC)CC)cc2)[C@H]1O.CS(=O)(=O)[O-] [Example 1410]	18.5 micromoles fecal bile acid per day
CCCCC1(CCCC)CS(=O)(=O)c2ccc(N(C)C)cc2[C@@H](c2ccc(OCCCCCN(CC)CC)cc2)[C@H]1O [Example 1414]	29 micromoles fecal bile acid per day
CCCCC1(CCCC)CS(=O)(=O)c2ccc(N(C)C)cc2[C@@H](c2ccc(OCCCCC[N+](C)(C)CC[N+](C)(C)CC)cc2)[C@H]1O [Example 1418]	−4.6 micromoles fecal bile acid per day
CCCCC1(CCCC)CS(=O)(=O)c2ccc(N(C)C)cc2[C@@H](c2ccc(OCCCCCNCC(=O)O)cc2)[C@H]1O [Example 1423]	35.3 micromoles fecal bile acid per day
CCCCC1(CCCC)CS(=O)(=O)c2ccc(N(C)C)cc2[C@@H](c2ccc(OCCCCCN(CCN(CC)CC)CCN(CC)CC)cc2)[C@H]1O [Example 1416]	25 micromoles fecal bile acid per day
CCCCC1(CCCC)CS(=O)(=O)c2ccc(N(C)C)cc2[C@@H](c2ccc(OCCCCC[N+](C)(C)CCCCCC[N+](C)(C)CCCCCOc3ccc([C@@H]4c5cc(N(C)C)ccc5S(=O)(=O)CC(CCCC)(CCCC)[C@@H]4O)cc3)cc2)[C@H]1O (relative stereo) [Example 1419]	10.3 micromoles fecal bile acid per day
CCCCC1(CCCC)CS(=O)(=O)c2ccc(N(C)C)cc2[C@@H](c2ccc(OCc3cccc(CCC(=O)O)n3)cc2)[C@H]1O [Example 1430]	20.7 micromoles fecal bile acid per day

Just for reference, patent US6784201B2 is where these values come from.
